assay: Plasma protein binding by equilibrium dialysis; format: in vitro ADME; settings: male, Sprague-Dawley, rat, plasma, pH 7.4
propertyLabel: fraction unbound at 4 h, 10 µM

> print(dat)
                                   molecule  reportedmeasurement
1  CC(=O)O.NCc1ccccc1O [2-HOBA, 2-Hydroxybenzylamine acetate]                0.951

###

assay: Red blood cell distribution in whole blood; assay type: in vitro ADME; details: male, Sprague-Dawley, rat, whole blood (EDTA)
propertyLabel: blood plasma ratio at 2 h, 1 µM

> print(dat)
                                   compound                    propertylabel  reportedmeasurement
1  CC(=O)O.NCc1ccccc1O [2-HOBA, 2-Hydroxybenzylamine acetate]  blood plasma ratio at 2 h, 1 µM                 0.87
